System: human EBC-1 cell subcutaneous xenograft model
Experiment: In vivo anti-tumor assessment in EBC-1 cell xenograft tumor mouse model
Set-up: species or system mice
Conditions: 10 mg/kg P.O. QD × 15 days
Procedure: Experimental objective: To investigate in vivo efficacy of representative compounds on human lung squamous carcinoma cell (human EBC-1 cell) subcutaneous xenograft model. Experimental methods: The EBC-1 cell xenograft tumor mouse model was used, according to the diameters of tumor, the tumor volume (TV), relative tumor volume (RTV), relative tumor proliferation rate (T/C (%)) and tumor growth inhibition value (TGI (%)) were calculated. TGI (%) or T/C (%) of the compounds was evaluated. […]
// values below are reported T/C(%)
Please respond with the number in % and leave the unit unwritten.

> print(dat)
                                   compound  reported.property  units.symbol  measured.value
1  CNC(=S)c1ccc(-c2cnc3ncc(Cc4ccc5ncccc5c4)n3n2)cc1F             T/C(%)             %           15.09

Could you share what T/C(%) was measured for CNC(=S)c1ccc(-c2cnc3ncc(Cc4cc(C(F)(F)F)c5ncccc5c4)n3n2)cc1F , tested on human EBC-1 cell subcutaneous xenograft model?
17.98

Kindly state the measured T/C(%) obtained for CNC(=O)c1ccc(-c2cnc3ncc(Cc4ccc5ncccc5c4)n3n2)cc1F [Capmatinib, reference compound] with human EBC-1 cell subcutaneous xenograft model.
24.97

human EBC-1 cell subcutaneous xenograft model / T/C(%) / CNC(=S)c1ccc(-c2cnc3ncc(Cc4ccc5nccnc5c4)n3n2)cc1F : value?
20.42
